The values you see were collected from patent US10399939B2.

target: UniProt:P03372; assay: Breast Cancer Cell ERa High Content Fluorescence Imaging Degradation Assay (ER-alpha MCF7 HCS); assay type: cell-based; details: MCF7 breast cancer cells; plateau of the maximal effect (ERa degradation); DMSO and 5 nM Fulvestrant define 0% and 100% changes in ESR1
experimental.readout: ER-alpha (WT) MCF7 HCS (S inf) (%)
Only the number, expressed in %, is required.

compound: Oc1ccc2c(c1)CC[C@H](c1ccccc1)[C@@H]2c1ccc(NCCN2CC(CF)C2)cc1
ER-alpha (WT) MCF7 HCS (S inf), %: −80

Summary for this compound, Oc1ccc2c(c1)CC[C@@H](c1ccccc1)[C@H]2c1ccc(OCCN2CC(CF)C2)cc1 : ER-alpha (WT) MCF7 HCS (S inf) is −94.7

Summary for this compound, Oc1ccc2c(c1)CC[C@H](c1ccccc1)[C@@H]2c1c(F)cc(OCCN2CC(CF)C2)cc1F : ER-alpha (WT) MCF7 HCS (S inf) is −98.7

====

// log10 of EC50 lookup, one value per entry
molecular target: ER-alpha (WT) (Homo sapiens (Human), UniProt P03372); assay: Breast Cancer Cell ERa High Content Fluorescence Imaging Degradation Assay (ER-alpha MCF7 HCS); conditions: MCF7 breast cancer cells, 4 hours incubation; inflexion point of curve
Sequence (P03372 whole entry): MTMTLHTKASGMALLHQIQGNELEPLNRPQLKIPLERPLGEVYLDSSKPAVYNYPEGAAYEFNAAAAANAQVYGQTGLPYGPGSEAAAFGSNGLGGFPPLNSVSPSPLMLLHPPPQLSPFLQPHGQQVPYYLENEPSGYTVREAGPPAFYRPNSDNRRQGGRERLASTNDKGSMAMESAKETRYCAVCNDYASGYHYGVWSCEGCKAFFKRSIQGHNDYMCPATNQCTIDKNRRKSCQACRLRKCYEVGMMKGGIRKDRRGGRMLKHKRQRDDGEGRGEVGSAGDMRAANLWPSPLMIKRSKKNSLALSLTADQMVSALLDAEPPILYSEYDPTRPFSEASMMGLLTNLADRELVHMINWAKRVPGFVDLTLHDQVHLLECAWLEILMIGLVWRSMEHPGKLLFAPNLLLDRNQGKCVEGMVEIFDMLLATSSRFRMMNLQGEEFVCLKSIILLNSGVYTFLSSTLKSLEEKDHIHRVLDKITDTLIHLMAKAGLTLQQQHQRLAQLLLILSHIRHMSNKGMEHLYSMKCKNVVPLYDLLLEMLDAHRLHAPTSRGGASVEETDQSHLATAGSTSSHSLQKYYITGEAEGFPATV
On a log10 scale: recorded EC50, unit pM.

Below, 5 compounds whose answers are already recorded.
compound: Oc1ccc2c(c1)CC[C@@H](c1ccccc1)[C@H]2c1ccc(OCCN2CCC(CF)C2)cc1 (stereo partly drawn)
system.name: ER-alpha (WT) (Homo sapiens (Human), UniProt P03372)
log10 of EC50: 2.00
//
compound: Oc1ccc2c(c1)CC[C@@H](c1ccc(F)cc1)[C@H]2c1ccc(OCCN2CC(CF)C2)cc1
system.name: ER-alpha (WT) (Homo sapiens (Human), UniProt P03372)
log10 of EC50: 4.59
//
compound: Oc1ccc2c(c1)CCC1(CCCC1)[C@H]2c1ccc(OCCN2CC(CF)C2)cc1
system.name: ER-alpha (WT) (Homo sapiens (Human), UniProt P03372)
log10 of EC50: 2.32
//
compound: CN1CC(CCOc2ccc([C@H]3c4ccc(O)cc4CC[C@H]3c3ccccc3)cc2)C1 (stereo in doubt) [B, reference compound]
system.name: ER-alpha (WT) (Homo sapiens (Human), UniProt P03372)
log10 of EC50: 1.41
//
compound: Oc1ccc2c(c1)CC[C@@H](c1ccccc1)[C@H]2c1ccc(OCCN2CC(CF)C2)cc1
system.name: ER-alpha (WT) (Homo sapiens (Human), UniProt P03372)
log10 of EC50: 3.91

Summary for this compound, N#Cc1ccc([C@@H]2CCc3cc(O)ccc3[C@@H]2c2ccc(OCCN3CC(CF)C3)cc2)cc1 : log10 of EC50 is 1.59

Summary for this compound, Oc1ccc2c(c1)CC[C@H](c1ccccc1)[C@@H]2c1ccc(OC2CN(CCCF)C2)cc1 : log10 of EC50 is 2.03

Summary for this compound, C[C@@H](COc1ccc([C@H]2c3ccc(O)cc3CC[C@H]2c2ccccc2)cc1)N1CC[C@@H](CF)C1 : log10 of EC50 is 1.57

Summary for this compound, Oc1cccc2c1[C@@H](c1ccc(OCCN3CC(CF)C3)cc1)[C@@H](c1ccccc1)CC2 : log10 of EC50 is 4.47

====

biological target: ER-alpha (WT) (Homo sapiens (Human)); experiment: Breast Cancer Cell ERa High Content Fluorescence Imaging Degradation Assay (ER-alpha MCF7 HCS); type: cell-based; details: MCF7 breast cancer cells; plateau of the maximal effect (ERa degradation); DMSO and 5 nM Fulvestrant define 0% and 100% changes in ESR1
experimental.readout: ER-alpha (WT) MCF7 HCS (S inf)
Quick note: number first, unit second.

compound: Oc1ccc2c(c1)CC[C@@H](c1ccccc1)[C@H]2c1ccc(OCCN2CC(CF)C2)cc1F [Compound 119]
ER-alpha (WT) MCF7 HCS (S inf): −85%
--
compound: Oc1ccc2c(c1)CC[C@H](c1ccccc1)[C@@H]2c1ccc(OCCN2CC(CCl)C2)cc1 [Compound 112]
ER-alpha (WT) MCF7 HCS (S inf): −35%
--
compound: Oc1ccc2c(c1)CC[C@H](C1CCC(F)(F)CC1)[C@@H]2c1ccc(OCCN2CC(CF)C2)cc1 [Compound 110]
ER-alpha (WT) MCF7 HCS (S inf): −98.2%

Summary for this compound, Oc1ccc2c(c1)CC[C@@H](c1ccccc1)[C@H]2c1c(F)cc(OCCN2CC(CF)C2)cc1F [Compound 104] : ER-alpha (WT) MCF7 HCS (S inf) is −95%

====

biological target: ER-alpha (WT) (Homo sapiens (Human), UniProt P03372); assay: Breast Cancer Cell ERa High Content Fluorescence Imaging Degradation Assay (ER-alpha MCF7 HCS); assay type: cell-based; details: MCF7 breast cancer cells; plateau of the maximal effect (ERa degradation); DMSO and 5 nM Fulvestrant define 0% and 100% changes in ESR1
// ER-alpha (WT) MCF7 HCS (S inf) lookup, one value per entry

compound: Oc1ccc2c(c1)CC[C@H](c1ccccc1)[C@@H]2c1ccc(OCCN2CC(CF)C2)nc1 [Compound 127]
experimental.readout: ER-alpha (WT) MCF7 HCS (S inf)
assay.value: −96.5%

Summary for this compound, C[C@H](CN1CC[C@@H](CF)C1)Oc1ccc([C@H]2c3ccc(O)cc3CC[C@H]2c2ccccc2)cc1 [Compound 126] : ER-alpha (WT) MCF7 HCS (S inf) is −97.1%

Summary for this compound, CS(=O)(=O)c1ccc([C@H]2CCc3cc(O)ccc3[C@H]2c2ccc(OCCN3CC(CF)C3)cc2)cc1 [Compound 117] : ER-alpha (WT) MCF7 HCS (S inf) is −91.4%

Summary for this compound, CN1CC(CCOc2ccc([C@H]3c4ccc(O)cc4CC[C@H]3c3ccccc3)cc2)C1 (stereo in doubt) [B, reference compound] : ER-alpha (WT) MCF7 HCS (S inf) is −43.35%

Summary for this compound, Oc1ccc2c(c1)CC[C@H](c1ccccc1)[C@@H]2c1ccc(OCCN2CCCC2)cc1 [lasofoxifene, reference compound] : ER-alpha (WT) MCF7 HCS (S inf) is −73.5%

Summary for this compound, Oc1ccc2c(c1)CC[C@@H](c1ccccc1)[C@H]2c1ccc(OCCN2CC(CF)C2)nc1 [Compound 128] : ER-alpha (WT) MCF7 HCS (S inf) is −84%

Summary for this compound, Oc1ccc2c(c1)CC[C@H](c1ccccc1)[C@@H]2c1ccc(OCCN2CC(CF)C2)cc1 [Compound 101] : ER-alpha (WT) MCF7 HCS (S inf) is −100%

====

molecular target: ER-alpha (WT) (Homo sapiens (Human)); assay: Breast Cancer Cell ERa High Content Fluorescence Imaging Degradation Assay (ER-alpha MCF7 HCS); conditions: MCF7 breast cancer cells, 4 hours incubation; inflexion point of curve
For each record, check the reported EC50: if it is below 10 nM write fulfilled, else write not fulfilled.

**Q:** Lab note: EC50 threshold 10 nM. Does this molecule come in strictly under it? Oc1ccc2c(c1)CC[C@@H](c1ccccc1)[C@H]2c1ccc(NCCN2CC(CF)C2)cc1
**A:** fulfilled

**Q:** Lab note: EC50 threshold 10 nM. Does this molecule come in strictly under it? Oc1ccc2c(c1)CC[C@@H](c1ccccc1)[C@H]2c1ccc(OCCN2CC(CF)C2)cc1F
**A:** not fulfilled

**Q:** Lab note: EC50 threshold 10 nM. Does this molecule come in strictly under it? Oc1ccc2c(c1)CC[C@@H](C1CCOCC1)[C@H]2c1ccc(OCCN2CC(CF)C2)cc1
**A:** fulfilled

====

// ER-alpha (WT) MCF7 HCS (S inf) lookup, one value per entry
molecular target: ER-alpha (WT) (Homo sapiens (Human), UniProt P03372); assay: Breast Cancer Cell ERa High Content Fluorescence Imaging Degradation Assay (ER-alpha MCF7 HCS); type: cell-based; details: MCF7 breast cancer cells; plateau of the maximal effect (ERa degradation); DMSO and 5 nM Fulvestrant define 0% and 100% changes in ESR1
Only the number, expressed in %, is required.

compound: CS(=O)(=O)c1ccc([C@@H]2CCc3cc(O)ccc3[C@@H]2c2ccc(OCCN3CC(CF)C3)cc2)cc1 [Compound 115]
assay.value: −75

The compound Oc1ccc2c(c1)CCC1(CCCC1)[C@H]2c1ccc(OCCN2CC(CF)C2)cc1 [Compound 121] , tested on ER-alpha (WT) (Homo sapiens (Human), UniProt P03372), showed ER-alpha (WT) MCF7 HCS (S inf) of −98.5

The compound Oc1ccc2c(c1)CC[C@@H](C1CCC(F)(F)CC1)[C@H]2c1ccc(OCCN2CC(CF)C2)cc1 [Compound 108] , tested on ER-alpha (WT) (Homo sapiens (Human), UniProt P03372), showed ER-alpha (WT) MCF7 HCS (S inf) of −97

The compound Oc1ccc2c(c1)CC[C@H](c1ccccc1)[C@@H]2c1ccc(OCCN2CC(CF)C2)cc1F [Compound 120] , tested on ER-alpha (WT) (Homo sapiens (Human), UniProt P03372), showed ER-alpha (WT) MCF7 HCS (S inf) of −98.8
